# assay_text: NCI Yeast Anticancer Drug Screen. Data for the mlh1 rad18 strain (AID 175)
# condition_label: S. cerevisiae mlh1 rad18 strain growth inhibition; at 50.0 µM (retest, dose inferred, filed as 5.0)
The panel holds about 79,000 compounds, 15% with a hit somewhere; the sample as a whole holds those more often. Active and inactive are the calls of the source. Cut-off read from the data, not from the text of the source: active = growth inhibition above about 70%; inactive = the rest.
Your reply should match one of these outcome classes. active, inactive

>  <compound>
O=C1CSC(=S)N1Cc1cccnc1

>  <group_label>
active

$$$$
>  <compound>
COC(=O)Nc1nc2ccc(C3(c4ccc(F)cc4)OCCO3)cc2[nH]1

>  <group_label>
active

$$$$
>  <compound>
CC(CSc1n[nH]c(=S)s1)c1ccccc1 (stereo unspecified)

>  <group_label>
active

$$$$
>  <compound>
CC(C)NC(=O)C(C)O (stereo unspecified)

>  <group_label>
inactive

$$$$
>  <compound>
O=C(c1ccccc1)c1cc2ccccc2oc1=O

>  <group_label>
active

$$$$
>  <compound>
CC(=O)Oc1ccc(OC(C)=O)c2c1CC=CC2

>  <group_label>
inactive

$$$$

QUERY: What did the test return for c1ccc2sc(SSN3CC4CCC(CC4)C3)nc2c1 ?
RESULT: active

QUERY: Then this compound: CCCOC1N(c2ccc(C)cc2)NC(=O)C1(C)C (stereo unspecified)
RESULT: active

QUERY: Then this compound: S=c1sc2ccccc2n1CCNc1ccccc1
RESULT: inactive

QUERY: Then this compound: CN(Cc1ccccc1)c1ccc(SC#N)cc1
RESULT: active

###

# assay_text: NCI Yeast Anticancer Drug Screen. Data for the cln2 rad14 strain (AID 165);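 note: 0% = growth equal to vehicle treated cultures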
# condition_label: S. cerevisiae cln2 rad14 strain, at 50.0 µM, hits give high values
This is part of a sample that, as a whole, favours compounds with a hit. Of some 79,000 tested, about 15% had one in any assay.
Item-by-item account of growth inhibition
Numbers only here, please. The scale is %.

Some solved entries appear below for comparison.
>  <molecule>
N=C1C(=N)c2ccccc2-c2ccccc21

>  <growth inhibition, %>
91.7

$$$$
>  <molecule>
Cn1c(COC(=O)NC2CCCCC2)c(COC(=O)NC2CCCCC2)c2ccc3cc(Cl)c(Cl)cc3c21

>  <growth inhibition, %>
49.2

$$$$
>  <molecule>
Nc1ccc(-c2ccc(N)c(S(=O)(=O)O)c2)cc1S(=O)(=O)O

>  <growth inhibition, %>
49

$$$$

Please turn your attention to the following entry.
QUERY: Given the entry CC1OC(OC2C(OC3CCC4(C)C(CCC5(C)C4CC=C4C6CC(C)(C)CCC6(C(=O)O)CCC45C)C3(C)CO)OCC(O)C2O)C(O)C(O)C1O (centres undefined) , report its measured growth inhibition.
RESULT: 88.5

###

# assay_text: NCI Yeast Anticancer Drug Screen. Data for the mlh1 rad18 strain (AID 175)
# condition_label: S. cerevisiae mlh1 rad18 strain growth inhibition; at 5.0 µM (retest, dose inferred, filed as 0.5); hits give high values
The panel holds about 79,000 compounds, 15% with a hit somewhere; the sample as a whole holds those more often.
Item-by-item account of growth inhibition
Numbers only here, please. The scale is %.

Some solved entries appear below for comparison.
>  <molecule>
Nc1ccc(C(=O)/C=C/c2ccccc2)cc1

>  <growth inhibition [%]>
4

$$$$
>  <molecule>
CN(C)c1ccc2cc3c(cc2c1)Oc1ccccc1N3.[Cl][Zn][Cl]

>  <growth inhibition [%]>
42

$$$$
>  <molecule>
CC1=CC[C@@H]2[C@@H](CC[C@@]2(C)O)C(C)(C)[C@H]1CC[C@@H]1[C@@]2(C)CCC(=O)C(C)(C)O[C@@H]2CC[C@]1(C)O

>  <growth inhibition [%]>
25

$$$$
>  <molecule>
CC1=CC(=NC(=O)CBr)C=C/C1=N\S(=O)(=O)c1ccccc1

>  <growth inhibition [%]>
55

$$$$
>  <molecule>
CC1(O)CCCCCC1

>  <growth inhibition [%]>
16

$$$$
>  <molecule>
CCOc1ccc(C(C[N+](=O)[O-])Sc2ccccc2N)cc1 (stereo not drawn)

>  <growth inhibition [%]>
45

$$$$

QUERY: Given the entry COc1cc([C@@H]2c3cc4c(cc3[C@H](OC3OC5COC(c6ccccc6)OC5C(O)C3O)[C@H]3COC(=O)[C@H]23)OCO4)cc(OC)c1OC (stereo partly drawn) , report its measured growth inhibition.
RESULT: -4

QUERY: Then this molecule: O=C(OC12CC3CC(CC(C3)C1)C2)c1ccc(NCc2cc(O)ccc2O)cc1
RESULT: 32

QUERY: Then this molecule: CC1(C)N=c2cc3c(cc2N1c1ccc(Cl)cc1)=Nc1ccccc1N3c1ccc(Cl)cc1
RESULT: 35

QUERY: Then this molecule: CCC[CH2][Sn]1([CH2]CCC)[O]C2C(CO)OC(n3ccc(N)nc3=O)C2[O]1 (stereo not drawn)
RESULT: 26
